Target: Endothelin-1 receptor (Sus scrofa, UniProt Q29010)
Sequence (Q29010 whole entry): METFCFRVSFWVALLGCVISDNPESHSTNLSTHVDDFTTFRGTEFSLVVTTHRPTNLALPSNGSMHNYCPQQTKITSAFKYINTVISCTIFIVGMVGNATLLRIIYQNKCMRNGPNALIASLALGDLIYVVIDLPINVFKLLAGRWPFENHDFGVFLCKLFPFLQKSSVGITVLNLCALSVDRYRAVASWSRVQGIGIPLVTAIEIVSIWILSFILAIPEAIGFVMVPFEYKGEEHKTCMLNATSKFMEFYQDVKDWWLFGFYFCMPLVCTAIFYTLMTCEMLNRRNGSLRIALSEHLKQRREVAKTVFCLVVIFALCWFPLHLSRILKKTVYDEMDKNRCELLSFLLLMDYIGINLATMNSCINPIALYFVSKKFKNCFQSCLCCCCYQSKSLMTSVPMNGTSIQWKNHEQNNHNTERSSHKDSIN
Assay: Antagonist activity against ET-A from porcine heart membranes
Assay type: functional, tissue-based
pIC50: −log10 of the molar value.
I would appreciate it if you labelled entries 1 when pIC50 is 8 or higher, otherwise 0.

| molecule smiles | class |
| --- | --- |
| CC[C@H](C)[C@H](NC(=O)[C@H](CC(=O)O)NC(=O)[C@H](CCCCN)NC(=O)[C@H](NC(C)=O)C1c2ccccc2CCc2ccccc21)C(=O)N[C@H](C(=O)N[C@@H](Cc1c[nH]c2ccccc12)C(=O)O)[C@@H](C)CC | 1 |

With those in mind, consider the next compound.
input: Check the entry CC[C@H](C)[C@H](NC(=O)[C@@H](NC(=O)[C@H](CC(=O)O)NC(=O)[C@H](CCC(N)=O)NC(=O)[C@H](NC(C)=O)C1c2ccccc2CCc2ccccc21)C(C)C)C(=O)N[C@@H](Cc1c[nH]c2ccccc12)C(=O)O : does pIC50 equal or exceed 8?
output: 1

====

Target: UniProtKB Q29010
Sequence (whole entry): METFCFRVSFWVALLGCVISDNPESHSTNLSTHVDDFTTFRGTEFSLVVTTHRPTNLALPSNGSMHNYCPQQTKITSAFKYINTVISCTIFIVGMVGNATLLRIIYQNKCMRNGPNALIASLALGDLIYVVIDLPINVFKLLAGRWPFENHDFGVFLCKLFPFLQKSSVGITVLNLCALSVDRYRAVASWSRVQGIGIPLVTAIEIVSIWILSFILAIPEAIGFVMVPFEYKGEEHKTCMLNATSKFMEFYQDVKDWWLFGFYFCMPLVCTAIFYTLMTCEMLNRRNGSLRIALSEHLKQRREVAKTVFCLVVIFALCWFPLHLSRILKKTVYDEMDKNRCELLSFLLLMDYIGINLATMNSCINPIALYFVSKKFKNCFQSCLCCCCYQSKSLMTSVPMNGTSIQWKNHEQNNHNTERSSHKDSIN
Assay: Inhibition of endothelin (ET-A) binding to porcine heart membranes
Parameters: concentration or dose not given beside the values
Details: Membrane, concentration not given here
I would appreciate it if you labelled entries yes (1) when inhibition is 30% or higher, otherwise no (0).

# count of solved cases: 4
| molecule smiles | experimental system | class |
| --- | --- | --- |
| CC(=O)N[C@@H](C(=O)N[C@@H](CC(C)C)C(=O)N[C@@H](CO)C(=O)NCC(=O)N[C@H](C(=O)N[C@@H](Cc1c[nH]c2ccccc12)C(=O)O)C(C)C)C1c2ccccc2CCc2ccccc21 | UniProtKB Q29010 | yes (1) |
| CC[C@H](C)[C@H](NC(=O)CNC(=O)[C@H](Cc1ccccc1)NC(=O)[C@H](CC(C)C)NC(=O)[C@H](NC(C)=O)C1c2ccccc2CCc2ccccc21)C(=O)N[C@@H](Cc1c[nH]c2ccccc12)C(=O)O | UniProtKB Q29010 | yes (1) |
| CC[C@@H](C)[C@H](NC(=O)[C@H](CC(C)C)NC(=O)[C@H](NC(C)=O)C1c2ccccc2CCc2ccccc21)C(=O)NCC(=O)N[C@H](C(=O)N[C@@H](Cc1c[nH]c2ccccc12)C(=O)O)[C@@H](C)CC | UniProtKB Q29010 | no (0) |
| CC[C@H](C)[C@H](NC(=O)CNC(=O)[C@H](CC(C)C)NC(=O)[C@H](CC(C)C)NC(=O)[C@H](NC(C)=O)C1c2ccccc2CCc2ccccc21)C(=O)N[C@@H](Cc1c[nH]c2ccccc12)C(=O)O | UniProtKB Q29010 | yes (1) |

With those in mind, consider the next compound.
input: Check the entry CC[C@H](C)[C@H](NC(=O)CNC(=O)[C@H](Cc1c[nH]cn1)NC(=O)[C@H](CC(C)C)NC(=O)[C@H](NC(C)=O)C1c2ccccc2CCc2ccccc21)C(=O)N[C@@H](Cc1c[nH]c2ccccc12)C(=O)O : does inhibition equal or exceed 30%?
output: yes (1)

====

Give measured inhibition for each item. Keep answers brief.
molecular target: Endothelin-1 receptor (Sus scrofa) (UniProt Q29010); assay: Inhibition of endothelin (ET-A) binding to porcine heart membranes; set-up: concentration or dose not given beside the values; settings: Membrane, concentration not given here
One number for each entry, in %.

| molecule smiles | inhibition (%) |
| --- | --- |
| CC[C@H](C)[C@H](NC(=O)[C@@H](NC(=O)[C@H](CC(=O)O)NC(=O)[C@H](CC(C)C)NC(=O)[C@H](NC(C)=O)C1c2ccccc2CCc2ccccc21)[C@H](C)O)C(=O)N[C@@H](Cc1c[nH]c2ccccc12)C(=O)O | 12 |

Moving on to another compound below.
input: Which inhibition value is on record for CC[C@H](C)[C@H](NC(=O)[C@H](Cc1c[nH]cn1)NC(=O)[C@H](CC(=O)O)NC(=O)[C@H](CC(C)C)NC(=O)[C@H](NC(C)=O)C1c2ccccc2CCc2ccccc21)C(=O)N[C@@H](Cc1c[nH]c2ccccc12)C(=O)O ?
output: 12

====

Give measured pIC50 for each item. Keep answers brief.
molecular target: Endothelin-1 receptor (Sus scrofa); test: Antagonist activity against ET-A from porcine heart membranes; assay type: functional, tissue-based
Square brackets hold non-standard residues; d marks the D form. Peptide text beside a SMILES is read from it. dGly(5-dibenzosuberyl) = N[C@@H](C(=O)O)C1c2ccccc2CCc2ccccc21
One number for each entry, as −log10 of the molar value.

| compound | experimental system | observed result |
| --- | --- | --- |
| CC[C@H](C)[C@H](NC(=O)[C@@H](NC(=O)[C@H](CC(=O)O)NC(=O)[C@H](CC(C)C)NC(=O)[C@H](NC(C)=O)C1c2ccccc2CCc2ccccc21)C(C)(C)C)C(=O)N[C@@H](Cc1c[nH]c2ccccc12)C(=O)O | Endothelin-1 receptor (Sus scrofa) | 8.30 |
| CC[C@H](C)[C@H](NC(=O)[C@H](CC(=O)O)NC(=O)[C@H](Cc1c[nH]c2ccccc12)NC(=O)[C@H](NC(C)=O)C1c2ccccc2CCc2ccccc21)C(=O)N[C@H](C(=O)N[C@@H](Cc1c[nH]c2ccccc12)C(=O)O)[C@@H](C)CC | Endothelin-1 receptor (Sus scrofa) | 7.96 |
| CC[C@H](C)[C@H](NC(=O)[C@H](CC(=O)O)NC(=O)[C@H](CCCN=C(N)N)NC(=O)[C@H](NC(C)=O)C1c2ccccc2CCc2ccccc21)C(=O)N[C@H](C(=O)N[C@@H](Cc1c[nH]c2ccccc12)C(=O)O)[C@@H](C)CC (Ac-[dGly(5-dibenzosuberyl)]RDIIW-OH) | Endothelin-1 receptor (Sus scrofa) | 8.52 |
| CC[C@H](C)[C@H](NC(=O)[C@H](CC(=O)O)NC(=O)CNC(=O)[C@H](NC(C)=O)C1c2ccccc2CCc2ccccc21)C(=O)N[C@H](C(=O)N[C@@H](Cc1c[nH]c2ccccc12)C(=O)O)[C@@H](C)CC | Endothelin-1 receptor (Sus scrofa) | 7.72 |
| CC[C@H](C)[C@H](NC(=O)[C@@H](NC(=O)[C@H](CC(=O)O)NC(=O)[C@H](CC(N)=O)NC(=O)[C@H](NC(C)=O)C1c2ccccc2CCc2ccccc21)C(C)C)C(=O)N[C@@H](Cc1c[nH]c2ccccc12)C(=O)O | Endothelin-1 receptor (Sus scrofa) | 8.40 |
| CC[C@H](C)[C@H](NC(=O)[C@H](CC(=O)O)NC(=O)[C@H](CCC(=O)O)NC(=O)[C@H](NC(C)=O)C1c2ccccc2CCc2ccccc21)C(=O)N[C@H](C(=O)N[C@@H](Cc1c[nH]c2ccccc12)C(=O)O)[C@@H](C)CC (Ac-[dGly(5-dibenzosuberyl)]EDIIW-OH) | Endothelin-1 receptor (Sus scrofa) | 7.96 |
| CC[C@H](C)[C@H](NC(=O)[C@H](CC(=O)O)NC(=O)[C@H](Cc1ccccc1)NC(=O)[C@H](NC(C)=O)C1c2ccccc2CCc2ccccc21)C(=O)N[C@H](C(=O)N[C@@H](Cc1c[nH]c2ccccc12)C(=O)O)[C@@H](C)CC | Endothelin-1 receptor (Sus scrofa) | 7.62 |
| CC[C@H](C)[C@H](NC(=O)[C@H](CC(=O)O)NC(=O)[C@H](CCSC)NC(=O)[C@H](NC(C)=O)C1c2ccccc2CCc2ccccc21)C(=O)N[C@H](C(=O)N[C@@H](Cc1c[nH]c2ccccc12)C(=O)O)[C@@H](C)CC | Endothelin-1 receptor (Sus scrofa) | 8.10 |

Okay, here is my list. What is pIC50 for each of these?
1. CC[C@H](C)[C@H](NC(=O)[C@@H](NC(=O)[C@H](CC(=O)O)NC(=O)[C@H](CCC(N)=O)NC(=O)[C@H](NC(C)=O)C1c2ccccc2CCc2ccccc21)C(C)(C)C)C(=O)N[C@@H](Cc1c[nH]c2ccccc12)C(=O)O
2. CC[C@H](C)[C@H](NC(=O)[C@H](CC(=O)O)NC(=O)[C@H](C)NC(=O)[C@H](NC(C)=O)C1c2ccccc2CCc2ccccc21)C(=O)N[C@H](C(=O)N[C@@H](Cc1c[nH]c2ccccc12)C(=O)O)[C@@H](C)CC
3. CC[C@H](C)[C@H](NC(=O)[C@H](CC(=O)O)NC(=O)[C@H](CC(=O)O)NC(=O)[C@H](NC(C)=O)C1c2ccccc2CCc2ccccc21)C(=O)N[C@H](C(=O)N[C@@H](Cc1c[nH]c2ccccc12)C(=O)O)[C@@H](C)CC
4. CC[C@H](C)[C@H](NC(=O)[C@H](CC(=O)O)NC(=O)[C@@H]1CCCN1C(=O)[C@H](NC(C)=O)C1c2ccccc2CCc2ccccc21)C(=O)N[C@H](C(=O)N[C@@H](Cc1c[nH]c2ccccc12)C(=O)O)[C@@H](C)CC
5. CC[C@H](C)[C@H](NC(=O)[C@H](CC(=O)O)NC(=O)[C@H](CC(N)=O)NC(=O)[C@H](NC(C)=O)C1c2ccccc2CCc2ccccc21)C(=O)N[C@H](C(=O)N[C@@H](Cc1c[nH]c2ccccc12)C(=O)O)[C@@H](C)CC

output:
1: 8.30; 2: 8.22; 3: 7.96; 4: 8.22; 5: 8.52
